// reported protein stability index per item
B1: INTS3 (parent)
chain: YPPLEGHVRQGVFSSLNHIVEKRV

Variants of: B1
TEST SUMMARY: protein stability index of a GFP-peptide fusion (GPS, HEK-293T) (PSI 1-6); higher = more stable;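 further: lentivirally expressed fusions sorted by FACS into six bins by GFP to DsRed ratio, PSI derived from sequencing read proportions per bin multiplied by bin number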
TEST CONTEXT: c terminus: a fixed tail appended
Kindly provide the number alone.

MUTANT ID | protein stability index
S15M | 2.43
K22M | 1.73
Q10A | 2.19
L4F | 3.06
V24K | 2.4

Fill blank: measured protein stability index of the variant R9S is ____.
2.51

Okay, and V8F ?
2.23

Okay, and S15C ?
1.69

Okay, and G11W ?
1.34

Provenance of the data: the supplement of paper PMC10567573
